The following molecules are listed with their measured percentage damage caused to the plant, IPOHE values.
- System: Ipomoea hederacea (IPOHE)
- Run description: Post-emergence herbicidal glasshouse test
- Assay type: in vivo
- Run parameters: 250 g/ha, evaluated after 13 days, five-point scale

So the reported percentage damage caused to the plant, IPOHE for Cc1cc(C(F)(F)F)nc2cccc(Oc3ncc(Cl)cn3)c12 [Compound 1.021] , on Ipomoea hederacea (IPOHE), turned out to be 2 (2=21-40%)

###

The following compounds are listed with their measured percentage damage caused to the plant, AMARE values.
- Test system: Amaranthus retoflexus (AMARE)
- Run description: Pre-emergence herbicidal glasshouse test
- Assay type: in vivo
- Run parameters: 250 g/ha, evaluated after 13 days, five-point scale

Past entries and their recorded results:
So the reported percentage damage caused to the plant, AMARE for `FC(F)(F)c1ncc2c(Oc3ncccn3)cccc2n1` , on Amaranthus retoflexus (AMARE), turned out to be 4 (4=61-80%)

So the reported percentage damage caused to the plant, AMARE for `FC(F)(F)c1ncc2c(Oc3ncc(C4CC4)cn3)cccc2n1` , on Amaranthus retoflexus (AMARE), turned out to be 1 (1=0-20%)

So the reported percentage damage caused to the plant, AMARE for `Cc1nc(C(F)(F)Cl)nc2cccc(Oc3ncc(Cl)cn3)c12` , on Amaranthus retoflexus (AMARE), turned out to be 5 (5=81-100%)

Next, consider the following compound.
So the reported percentage damage caused to the plant, AMARE for `FC(F)(Cl)c1ncc2c(Oc3ncc(Br)cn3)cccc2n1` , on Amaranthus retoflexus (AMARE), turned out to be 5 (5=81-100%)

###

- Test system: AMAPA
- Run description: Post-emergence herbicidal glasshouse test
- Assay type: in vivo, Amaranthus tuberculatus
- Run parameters: 250 g/ha, evaluated after 13 days, five-point scale
The following compounds are listed with their measured percentage damage caused to the plant, AMAPA values.

Past entries and their recorded results:
So the reported percentage damage caused to the plant, AMAPA for `Cc1cnc(Oc2ccc(C)c3nc(C(F)(F)F)ccc23)nc1` , on AMAPA, turned out to be 3 (3=41-60%)

So the reported percentage damage caused to the plant, AMAPA for `Cc1ccc(Oc2ncc(Cl)cn2)c2ccc(C(F)(F)F)nc12` , on AMAPA, turned out to be 3 (3=41-60%)

So the reported percentage damage caused to the plant, AMAPA for `Clc1cnc(Oc2cccc3ccncc23)nc1` , on AMAPA, turned out to be 2 (2=21-40%)

Next, consider the following compound.
So the reported percentage damage caused to the plant, AMAPA for `FC(F)(F)c1ncc2c(Oc3ncc(C4CC4)cn3)cccc2n1` , on AMAPA, turned out to be 1 (1=0-20%)

###

- Test system: Ipomoea hederacea (IPOHE)
- Run description: Post-emergence herbicidal glasshouse test
- Type: in vivo
- Run parameters: 250 g/ha, evaluated after 13 days, five-point scale
Measured parameter: percentage damage caused to the plant, IPOHE

So the reported percentage damage caused to the plant, IPOHE for `FC(F)(F)c1ncc2c(Oc3ncccn3)cccc2n1` , on Ipomoea hederacea (IPOHE), turned out to be 3 (3=41-60%)

---
So the reported percentage damage caused to the plant, IPOHE for `Fc1cnc(Oc2cccc3nc(C(F)F)ncc23)nc1` , on Ipomoea hederacea (IPOHE), turned out to be 4 (4=61-80%)

So the reported percentage damage caused to the plant, IPOHE for Cc1ccc(Oc2ncc(Cl)cn2)c2cnc(C(F)(F)F)nc12 [Compound 1.028] , on Ipomoea hederacea (IPOHE), turned out to be 2 (2=21-40%)

So the reported percentage damage caused to the plant, IPOHE for `COc1nc(C)c2c(Oc3ncc(Cl)cn3)cccc2n1` , on Ipomoea hederacea (IPOHE), turned out to be 1 (1=0-20%)

###

The following compounds are listed with their measured percentage damage caused to the plant, AMARE values.
- System: Amaranthus retoflexus (AMARE)
- Run description: Pre-emergence herbicidal glasshouse test
- Type: in vivo
- Run parameters: 250 g/ha, evaluated after 13 days, five-point scale

So the reported percentage damage caused to the plant, AMARE for `Cc1nc(C(F)F)nc2cccc(Oc3ncc(Br)cn3)c12` , on Amaranthus retoflexus (AMARE), turned out to be 1 (1=0-20%)

So the reported percentage damage caused to the plant, AMARE for `FC(F)(F)c1ccc2c(Oc3ncc(Cl)cn3)cccc2n1` , on Amaranthus retoflexus (AMARE), turned out to be 5 (5=81-100%)

So the reported percentage damage caused to the plant, AMARE for `Cc1nc(C(F)(F)F)nc2c(Br)ccc(Oc3ncc(Cl)cn3)c12` , on Amaranthus retoflexus (AMARE), turned out to be 1 (1=0-20%)

---
So the reported percentage damage caused to the plant, AMARE for `N#Cc1cnc(Oc2cccc3nc(C(F)(F)F)ncc23)nc1` , on Amaranthus retoflexus (AMARE), turned out to be 1 (1=0-20%)

So the reported percentage damage caused to the plant, AMARE for `Cc1ccc(Oc2ncc(F)cn2)c2cnc(C(F)F)nc12` , on Amaranthus retoflexus (AMARE), turned out to be 2 (2=21-40%)

So the reported percentage damage caused to the plant, AMARE for `Cc1ccc(Oc2ncc(Cl)cn2)c2c(C)nc(C(F)(F)F)nc12` , on Amaranthus retoflexus (AMARE), turned out to be 1 (1=0-20%)

So the reported percentage damage caused to the plant, AMARE for `Cc1nc(C(F)F)nc2cccc(Oc3ncc(F)cn3)c12` , on Amaranthus retoflexus (AMARE), turned out to be 2 (2=21-40%)

So the reported percentage damage caused to the plant, AMARE for Cc1ccc(Oc2ncc(Cl)cn2)c2cnc(C(F)(F)F)nc12 [Compound 1.068] , on Amaranthus retoflexus (AMARE), turned out to be 5 (5=81-100%)

So the reported percentage damage caused to the plant, AMARE for `Fc1cnc(Oc2cccc3nc(C(F)F)ncc23)nc1` , on Amaranthus retoflexus (AMARE), turned out to be 5 (5=81-100%)

###

- System: Ipomoea hederacea (IPOHE)
- Run description: Post-emergence herbicidal glasshouse test
- Type: in vivo
- Run parameters: 250 g/ha, evaluated after 13 days, five-point scale
Measured parameter: percentage damage caused to the plant, IPOHE

`Clc1cnc(Oc2cccc3ccncc23)nc1` has a reported percentage damage caused to the plant, IPOHE of 1 (1=0-20%)

`Fc1cnc(Oc2ccc(Br)c3nc(C(F)(F)F)ccc23)nc1` has a reported percentage damage caused to the plant, IPOHE of 1 (1=0-20%)

`FC(F)c1ncc2c(Oc3ncc(Cl)cn3)ccc(Cl)c2n1` has a reported percentage damage caused to the plant, IPOHE of 1 (1=0-20%)

`Cc1nc(C(F)(F)Cl)nc2cccc(Oc3ncc(F)cn3)c12` has a reported percentage damage caused to the plant, IPOHE of 3 (3=41-60%)

`Cc1ccc(Oc2ncc(Cl)cn2)c2c(C)nc(C(F)(F)F)nc12` has a reported percentage damage caused to the plant, IPOHE of 1 (1=0-20%)

---
`FC(F)(F)c1ccc2c(Oc3ncc(Br)cn3)cccc2n1` has a reported percentage damage caused to the plant, IPOHE of 3 (3=41-60%)

`Cc1cnc(Oc2cccc3nc(C(F)(F)Cl)ncc23)nc1` has a reported percentage damage caused to the plant, IPOHE of 4 (4=61-80%)

`Fc1cnc(Oc2ccc(Cl)c3nc(C(F)F)ncc23)nc1` has a reported percentage damage caused to the plant, IPOHE of 2 (2=21-40%)

`Cc1ccc(Oc2ncc(Cl)cn2)c2cnc(C(F)(F)Cl)nc12` has a reported percentage damage caused to the plant, IPOHE of 1 (1=0-20%)

###

The following compounds are listed with their measured percentage damage caused to the plant, AMARE values.
- Tested on: Amaranthus retoflexus (AMARE)
- Run description: Pre-emergence herbicidal glasshouse test
- Type: in vivo
- Run parameters: 250 g/ha, evaluated after 13 days, five-point scale

Past entries and their recorded results:
So the reported percentage damage caused to the plant, AMARE for `Cc1cnc(Oc2ccc(C)c3nc(C(F)(F)Cl)ncc23)nc1` , on Amaranthus retoflexus (AMARE), turned out to be 4 (4=61-80%)

So the reported percentage damage caused to the plant, AMARE for `N#Cc1cc(Cl)cnc1Oc1cccc2nc(C(F)(F)F)ncc12` , on Amaranthus retoflexus (AMARE), turned out to be 4 (4=61-80%)

So the reported percentage damage caused to the plant, AMARE for `Cc1ccc(Oc2ncc(Br)cn2)c2cnc(C(F)(F)Cl)nc12` , on Amaranthus retoflexus (AMARE), turned out to be 2 (2=21-40%)

So the reported percentage damage caused to the plant, AMARE for `FC(F)(F)c1ccc2c(Oc3ncc(Br)cn3)cccc2n1` , on Amaranthus retoflexus (AMARE), turned out to be 5 (5=81-100%)

So the reported percentage damage caused to the plant, AMARE for `Cc1ccc(Oc2ncc(F)cn2)c2ccc(C(F)(F)F)nc12` , on Amaranthus retoflexus (AMARE), turned out to be 2 (2=21-40%)

So the reported percentage damage caused to the plant, AMARE for `COc1nc(C)c2c(Oc3ncc(Cl)cn3)cccc2n1` , on Amaranthus retoflexus (AMARE), turned out to be 3 (3=41-60%)

---
So the reported percentage damage caused to the plant, AMARE for `Cc1ccc(Oc2ncc(Br)cn2)c2ccc(C(F)(F)F)nc12` , on Amaranthus retoflexus (AMARE), turned out to be 1 (1=0-20%)

So the reported percentage damage caused to the plant, AMARE for `Cc1cnc(Oc2ccc(C)c3nc(C(F)(F)F)ccc23)nc1` , on Amaranthus retoflexus (AMARE), turned out to be 1 (1=0-20%)

So the reported percentage damage caused to the plant, AMARE for `COc1ncc2c(Oc3ncc(F)cn3)ccc(Br)c2n1` , on Amaranthus retoflexus (AMARE), turned out to be 1 (1=0-20%)

So the reported percentage damage caused to the plant, AMARE for `Fc1cnc(Oc2ccc(Cl)c3nc(C(F)(F)Cl)ncc23)nc1` , on Amaranthus retoflexus (AMARE), turned out to be 4 (4=61-80%)

So the reported percentage damage caused to the plant, AMARE for `Cc1ccc(Oc2ncc(F)cn2)c2cnc(C(F)(F)Cl)nc12` , on Amaranthus retoflexus (AMARE), turned out to be 1 (1=0-20%)

So the reported percentage damage caused to the plant, AMARE for `FC(F)(Cl)c1ncc2c(Oc3ncc(Cl)cn3)ccc(Cl)c2n1` , on Amaranthus retoflexus (AMARE), turned out to be 3 (3=41-60%)

So the reported percentage damage caused to the plant, AMARE for `Cc1cnc(Oc2ccc(Cl)c3nc(C(F)(F)Cl)ncc23)nc1` , on Amaranthus retoflexus (AMARE), turned out to be 5 (5=81-100%)

So the reported percentage damage caused to the plant, AMARE for `CCOc1ncc2c(Oc3ncc(Cl)cn3)cccc2n1` , on Amaranthus retoflexus (AMARE), turned out to be 5 (5=81-100%)

So the reported percentage damage caused to the plant, AMARE for `Cc1cc(C(F)(F)F)nc2cccc(Oc3ncc(Cl)cn3)c12` , on Amaranthus retoflexus (AMARE), turned out to be 1 (1=0-20%)

So the reported percentage damage caused to the plant, AMARE for `Fc1cnc(Oc2cccc3nc(C(F)(F)F)ncc23)nc1` , on Amaranthus retoflexus (AMARE), turned out to be 5 (5=81-100%)

So the reported percentage damage caused to the plant, AMARE for `Fc1cnc(Oc2ccc(Cl)c3nc(C(F)F)ncc23)nc1` , on Amaranthus retoflexus (AMARE), turned out to be 5 (5=81-100%)
